Field: growth. Provide a value for each of the molecules that follow.
system: SK-OV-3 ovarian; assay: NCI-60 one-dose screen, 48 h (100 = growth as untreated, 0 = no growth, -100 = all killed); conditions: 10 µM unless noted
Compounds without any hit were thinned out: in the full panel of roughly 83,000, 20% have a hit. The source made the active and inactive calls. How the source made its calls: active means growth percent below 10; inactive means the rest.

Query: For the molecule `COc1cc(OC)cc(-c2ccc(-c3ccc(C(=N)N)s3)s2)c1` , give its reported growth.
Response: -92.4% (active)

Query: For the molecule CC(=O)N1N=C(C2C(=O)N(C)C(=O)N(C)C2=O)CC1c1ccccc1C(=O)O (centres undefined) , give its reported growth.
Response: 94.8% (inactive)

Query: For the molecule `CN(C)c1nc(-c2ccco2)n2nc(-c3ccc(Cl)cc3)cc2n1` , give its reported growth.
Response: 45.9% (inactive)

Query: For the molecule `CC(=O)Cc1ccccn1` , give its reported growth.
Response: 119% (inactive)

* * *

Field: growth. Provide a value for each of the compounds that follow.
System: LOX IMVI melanoma
Assay: NCI-60 one-dose screen, 48 h (100 = growth as untreated, 0 = no growth, -100 = all killed)
Settings: 10 µM unless noted
Method: Growth inhibition of the LOX IMVI human tumor cell line is measured as a screen for anti-cancer activity. Cells are grown in 96 well plates and exposed to the test compound for 48 hours. Compounds are tested at a single concentration, which is 10^-5 M for most compounds. The reported endpoint is percent growth (GI% or GIPRCNT), where numbers from 0 - 100% represent growth inhibition, and numbers from -100% - 0 represent cell death. For example, a value of 40 represents 60% growth inhibition. […]
About 83,000 compounds went through this panel and 20% of them were active in at least one assay; those are over-represented in the sample as a whole.
Record the value in %, omitting the unit from your answer.

Query: For the compound `Nc1c(Br)cc2c(c1Br)Cc1cc(Cl)ccc1-2` , give its reported growth.
Response: 89.3

Query: For the compound `CCN(CC)CCNC(=O)n1cc(-c2ccncc2)c(-c2ccc(Cl)c(OC)c2)n1` , give its reported growth.
Response: 92.3

Query: For the compound `COc1ccc(-c2nc3ccccc3n3cccc23)cc1` , give its reported growth.
Response: 90

* * *

system: KM12 colon; test: NCI-60 one-dose screen, 48 h (100 = growth as untreated, 0 = no growth, -100 = all killed); conditions: 10 µM unless noted
The panel holds about 83,000 compounds, 20% with a hit somewhere; the sample as a whole holds those more often.
parameter: growth (%)
Record the value in %, omitting the unit from your answer.

Query: Lab note: record growth of N/C(=N\OC(=O)c1ccccc1)C(C(=O)NOC(=O)c1ccccc1)C1CCCCC1 (centres undefined) tested on KM12 colon.
Response: 19.9

Query: Lab note: record growth of `CCOC(=O)c1ccc2c(c1)nc(-c1ccc(Cl)cc1)n2-c1cc(C(C)(C)C)[nH]n1` tested on KM12 colon.
Response: 29.9

Query: Lab note: record growth of CCOC(=O)C1C(=O)C=C(c2cc(OC)c(OC)c(OC)c2)CC1c1sc(N(C)Cc2ccccc2)nc1Cl (centres undefined) tested on KM12 colon.
Response: 93.6

Query: Lab note: record growth of `C[C@@H]1N=C(c2ccc3ccccc3c2)Nc2nc3ccccn3c2C1=O` tested on KM12 colon.
Response: 30.3

* * *

tested on: TK-10 renal; test: NCI-60 one-dose screen, 48 h (100 = growth as untreated, 0 = no growth, -100 = all killed); details: 10 µM unless noted
The panel holds about 83,000 compounds, 20% with a hit somewhere; the sample as a whole holds those more often.
Field: growth. Provide a value for each of the compounds that follow.
Record the value in %, omitting the unit from your answer.

Query: Lab note: record growth of CC(SC(C)C(=O)N/N=C/c1cccc(Cl)c1)C(=O)N/N=C\c1cccc(Cl)c1 (configuration not stated) tested on TK-10 renal.
Response: 105

Query: Lab note: record growth of `O=C(O)CSc1ccc(NCc2oc(CO)cc(=O)c2O)cc1` tested on TK-10 renal.
Response: 111

Query: Lab note: record growth of `Cc1ccc(C)c(NC(=O)c2sc3c(=O)[nH]cnc3c2C)c1` tested on TK-10 renal.
Response: 77.8

Query: Lab note: record growth of COc1ccc(C2NC(=O)c3cc4c(cc3N2)OCO4)cc1 (configuration not stated) tested on TK-10 renal.
Response: 52.8

Query: Lab note: record growth of CC(C)CC1NC(=O)C(CC(C)C)N(CO)C1=O (configuration not stated) tested on TK-10 renal.
Response: 97.9

Query: Lab note: record growth of `O=C(CCCN1CCC(O)(c2ccc(Br)cc2)CC1)c1ccc(F)cc1` tested on TK-10 renal.
Response: 96.6

Query: Lab note: record growth of `COc1ccc(-c2cnnn2-c2nonc2-n2cccc2)cc1` tested on TK-10 renal.
Response: 63.7

Query: Lab note: record growth of `Cc1cccc(/C=N/n2c(-c3ccc(Cl)cc3)nc3c(Br)cc(Br)cc3c2=O)c1` tested on TK-10 renal.
Response: 26.8

Query: Lab note: record growth of `CCOCCNc1ccc(S(=O)(=O)c2ccc(N)cc2)cc1N` tested on TK-10 renal.
Response: 111

Query: Lab note: record growth of `CN(C)CC(=O)c1ccc2cc(Br)c3ccccc3c2c1` tested on TK-10 renal.
Response: 72.7

Query: Lab note: record growth of `CCCCCCCCCCCC1=NC(C)(C)CN1C(C)C` tested on TK-10 renal.
Response: 81.6

Query: Lab note: record growth of `COc1cc([N+](=O)[O-])cc(OC)c1OC` tested on TK-10 renal.
Response: 106

Query: Lab note: record growth of `C=CCOc1ccc2c(C)cc(=O)oc2c1` tested on TK-10 renal.
Response: 91.9

Query: Lab note: record growth of `CS(=O)(=O)c1ccc(C(=O)N/N=C/c2ccccc2Cl)cc1` tested on TK-10 renal.
Response: 110

Query: Lab note: record growth of `C=C1C(=O)O[C@H]2[C@H]1CC/C(COC(=O)NCc1ccc(Cn3c(=O)sn(CCCl)c3=O)cc1)=C\CC[C@@]1(C)O[C@@H]21` tested on TK-10 renal.
Response: 11.4

Query: Lab note: record growth of `CCCCOC(=O)c1cc(O)c(O)c(O)c1` tested on TK-10 renal.
Response: 73

Query: Lab note: record growth of `O=C(CCl)Nc1cc(O)c2c(c1)C(=O)c1cccc(O)c1C2=O` tested on TK-10 renal.
Response: -87.3

Query: Lab note: record growth of `COc1ccccc1/C=N\Nc1ccc([N+](=O)[O-])cn1` tested on TK-10 renal.
Response: 111

Query: Lab note: record growth of `CC(C)(c1ccccc1)c1cc(O)c(C(C)(C)c2ccccc2)cc1O` tested on TK-10 renal.
Response: 36.1

Query: Lab note: record growth of COc1cccc(C2C(C#N)=C(N)Oc3cc4c(cc32)OCO4)c1 (configuration not stated) tested on TK-10 renal.
Response: 80

Query: Lab note: record growth of `COc1ccc(-c2cnc(-c3ccncc3-c3cccc(OC)c3)o2)cc1` tested on TK-10 renal.
Response: 30.5

Query: Lab note: record growth of `NC(N)=NC1CCCCC1` tested on TK-10 renal.
Response: 84.1

* * *

test system: OVCAR-8 ovarian; test: NCI-60 one-dose screen, 48 h (100 = growth as untreated, 0 = no growth, -100 = all killed); conditions: 10 µM unless noted
The panel holds about 83,000 compounds, 20% with a hit somewhere; the sample as a whole holds those more often.
# cutoff 90% applies to growth; >= gives y, < gives n

Query: # bool: growth of `COc1ccc(C(=O)O)cc1.[Ag]` >= 90%
Response: y

Query: # bool: growth of `Cc1nn(-c2cccc(Cl)c2)c(C)c1N=Nc1ccc(Br)cc1` >= 90%
Response: y

Query: # bool: growth of `COc1ccc(/C=C/c2nc(NCCCN(C)C)c3ccccc3n2)cc1` >= 90%
Response: n

Query: # bool: growth of `CCOCCNc1ccc(S(=O)(=O)c2ccc(N)cc2)cc1N` >= 90%
Response: y

Query: # bool: growth of `CCOC(=O)C#Cc1c(C(=O)OCC)nnn1[C@@H]1O[C@H](COC(C)=O)[C@@H](OC(C)=O)[C@H]1OC(C)=O` >= 90%
Response: y

* * *

Field: growth. Provide a value for each of the molecules that follow.
tested on: A498 renal; test: NCI-60 one-dose screen, 48 h (100 = growth as untreated, 0 = no growth, -100 = all killed); settings: 10 µM unless noted
About 83,000 compounds went through this panel and 20% of them were active in at least one assay; those are over-represented in the sample as a whole.
Record the value in %, omitting the unit from your answer.

Query: For the molecule CCCCc1nc(Cl)c(C2CC(c3ccc(S(N)(=O)=O)cc3)=NN2c2cc(Cl)cc(Cl)c2)[nH]1 (centres undefined) , give its reported growth.
Response: 81.7

Query: For the molecule CCC1N=C(N)N=C(N)N1c1ccc(Cl)cc1 (centres undefined) , give its reported growth.
Response: 77.1

Query: For the molecule `COc1cc2ncnc(Nc3ccc(S(=O)(=O)Nc4cc(C)on4)cc3)c2cc1OCCCN1CCN(c2ccc([N+](=O)[O-])cc2)CC1` , give its reported growth.
Response: 110

Query: For the molecule `O=C(Nc1cccc(-n2ccc3c(NC(=O)c4ccccc4)nccc32)c1)c1ccc(N2CCOCC2)c(C(F)(F)F)c1` , give its reported growth.
Response: 21.9

Query: For the molecule O=C(CSc1nnc(Cc2ccccc2Nc2c(Cl)cccc2Cl)n1-c1ccccc1)N1N=C(c2ccc3ccccc3c2)CC1c1ccc(Cl)cc1 (centres undefined) , give its reported growth.
Response: 102

Query: For the molecule CC(C)CC1NC(=O)C(CC(C)C)N(CO)C1=O (centres undefined) , give its reported growth.
Response: 95.9

Query: For the molecule `Clc1ccc(Cl)c(N=Cc2ccc3c(c2)OCO3)c1` , give its reported growth.
Response: 91.6

Query: For the molecule CCOC(=O)C1=C(C(=O)OCC)N(c2cc(OC)c(OC)c(OC)c2)C(N)=C(C#N)C1c1cc(=O)[nH]c2ccccc12 (centres undefined) , give its reported growth.
Response: 78.1

Query: For the molecule `O=C(/C=C/c1cn(-c2ccccc2)nc1-c1ccccc1)OCc1cn(-c2cccc([N+](=O)[O-])c2)nn1` , give its reported growth.
Response: 66.7

Query: For the molecule `C[N+](C)(C)CC(=O)N/N=C\c1ccco1` , give its reported growth.
Response: 98.7

Query: For the molecule `COc1ccccc1CNCCCN1C(=O)c2ccc3c4c(ccc(c24)C1=O)C(=O)N(CCCCNCCCN)C3=O` , give its reported growth.
Response: 87.9

Query: For the molecule `NC(N)=N/N=C/c1ccc(Cl)cc1` , give its reported growth.
Response: 68.2

Query: For the molecule `CN(C)CC(=O)c1ccc2cc(Br)c3ccccc3c2c1` , give its reported growth.
Response: 42.2

Query: For the molecule `Clc1ccc(C2=NN[C@H](c3cn(-c4ccccc4)nc3-c3ccccc3)C2)cc1` , give its reported growth.
Response: 91

Query: For the molecule `CC(C)c1nc2ccccc2n1CC(=O)N/N=C/c1cccc(O)c1` , give its reported growth.
Response: 88

Query: For the molecule `NNC(=O)CSc1nc2scc(-c3ccccc3)c2c(=O)n1-c1ccccc1` , give its reported growth.
Response: 87.4

Query: For the molecule `COc1ccc(/C(C)=N/NC(=O)c2ccc(S(C)(=O)=O)cc2)cc1OC` , give its reported growth.
Response: 94.1

Query: For the molecule `CCOC(=O)c1cnc(SCC)nc1SC#N` , give its reported growth.
Response: 106

Query: For the molecule CC(C)CC(=O)C(CCc1ccccn1)C(C)C (centres undefined) , give its reported growth.
Response: 91.8

Query: For the molecule `COc1ccccc1CNCCCN1C(=O)c2ccc3c4c(ccc(c24)C1=O)C(=O)N(CCCNCCCN)C3=O` , give its reported growth.
Response: 14.9

Query: For the molecule COc1ccc2c(c1)OC1=C(C(=O)OC1)C2c1cc(OC)c2c(c1)OCCO2 (centres undefined) , give its reported growth.
Response: -1.6

Query: For the molecule `COc1ccccc1/C=C/C(=O)CCC(=O)O` , give its reported growth.
Response: 130

Query: For the molecule `Clc1ccc(-c2cnc3nonc3n2)s1` , give its reported growth.
Response: 93.9

Query: For the molecule `NC(N)=N/N=C/c1cccc(Cl)c1Cl` , give its reported growth.
Response: 61.6

Query: For the molecule Cc1ccccc1C1CC(=O)c2ccccc2C1C (centres undefined) , give its reported growth.
Response: 88.5

Query: For the molecule `CN(C)CCCN1c2ccccc2CCc2ccccc21` , give its reported growth.
Response: 124

Query: For the molecule `NS(=O)(=O)c1ccc(CCn2c(SCC(=O)N/N=C/c3ccccc3O)nc3ccccc3c2=O)cc1` , give its reported growth.
Response: 21.7

Query: For the molecule `C#Cc1cccc(Nc2nc3cc([N+](=O)[O-])ccc3nc2Nc2ccc(O)cc2)c1` , give its reported growth.
Response: 49.4

Query: For the molecule `CNC(=O)c1c(NC(=O)c2ccc(C(C)C)cc2)sc2c1CCC(=O)C2` , give its reported growth.
Response: -19.7

Query: For the molecule CC(SC(C)C(=O)N/N=C/c1cccc(Cl)c1)C(=O)N/N=C\c1cccc(Cl)c1 (centres undefined) , give its reported growth.
Response: 102

Query: For the molecule `c1ccc2oc(-c3cnc4nonc4n3)cc2c1` , give its reported growth.
Response: 103

Query: For the molecule `O=C(Nc1ccc(Br)cc1)c1ccc(Cl)c(Cl)c1` , give its reported growth.
Response: 65.7

Query: For the molecule CC(C)c1ccc2c(c1)CCC1C2CCCC1(C)NCc1ccccc1 (centres undefined) , give its reported growth.
Response: 91.5

Query: For the molecule `COc1ccc2nc(-c3ccc(-c4noc(-c5ccc(Cl)cc5)n4)cc3)[nH]c2c1` , give its reported growth.
Response: 90.7
